Experiment: Pharmacokinetic study in rats after oral administration of PbR extract
Format: in vivo, rat
Conditions: male, Wistar, rat, plasma, po, 5 g/kg

[
  {
    "MOLECULE": "COC(=O)C1=CO[C@@H](O[C@@H]2O[C@H](CO)[C@@H](O)[C@H](O)[C@H]2O)[C@H]2[C@@H]1[C@H](O)C[C@]2(C)OC(C)=O",
    "UNIT INFO": "h",
    "half-life": 3.33
  },
  {
    "MOLECULE": "COC(=O)C1=CO[C@@H](O[C@@H]2O[C@H](CO)[C@@H](O)[C@H](O)[C@H]2O)[C@H]2[C@@H]1[C@H](O)C[C@]2(C)O [shanzhiside methyl ester]",
    "UNIT INFO": "h",
    "half-life": 3.59
  }
]

* * *

The entries below come with measured AUC(0-t) values attached.
Experiment: Pharmacokinetic study in rats after oral administration of PbR extract
Format: in vivo, rat
Settings: male, Wistar, rat, plasma, po, 5 g/kg

[
  {
    "COMPOUND": "COC(=O)C1=CO[C@@H](O[C@@H]2O[C@H](CO)[C@@H](O)[C@H](O)[C@H]2O)[C@H]2[C@@H]1[C@H](O)C[C@]2(C)O [shanzhiside methyl ester]",
    "AUC(0-t) (ng·h/mL)": 141
  },
  {
    "COMPOUND": "COC(=O)C1=CO[C@@H](O[C@@H]2O[C@H](CO)[C@@H](O)[C@H](O)[C@H]2O)[C@H]2[C@@H]1[C@H](O)C[C@]2(C)OC(C)=O [barlerin]",
    "AUC(0-t) (ng·h/mL)": 55.1
  }
]

* * *

The entries below come with measured MRT last values attached.
Test: Pharmacokinetic study in rats after oral administration of PbR extract
Type: in vivo, rat
Settings: male, Wistar, rat, plasma, po, 5 g/kg

[
  {
    "COMPOUND": "COC(=O)C1=CO[C@@H](O[C@@H]2O[C@H](CO)[C@@H](O)[C@H](O)[C@H]2O)[C@H]2[C@@H]1[C@H](O)C[C@]2(C)O [shanzhiside methyl ester]",
    "MRT last": "3.84 h"
  },
  {
    "COMPOUND": "COC(=O)C1=CO[C@@H](O[C@@H]2O[C@H](CO)[C@@H](O)[C@H](O)[C@H]2O)[C@H]2[C@@H]1[C@H](O)C[C@]2(C)OC(C)=O [barlerin]",
    "MRT last": "3.12 h"
  }
]

* * *

Assay: Pharmacokinetic study in rats after oral administration of PbR extract
Assay type: in vivo, rat
Details: male, Wistar, rat, plasma, po, 5 g/kg
The entries below come with measured MRT inf values attached.

[
  {
    "COMPOUND": "COC(=O)C1=CO[C@@H](O[C@@H]2O[C@H](CO)[C@@H](O)[C@H](O)[C@H]2O)[C@H]2[C@@H]1[C@H](O)C[C@]2(C)OC(C)=O",
    "MRT inf / h": 4.65
  },
  {
    "COMPOUND": "COC(=O)C1=CO[C@@H](O[C@@H]2O[C@H](CO)[C@@H](O)[C@H](O)[C@H]2O)[C@H]2[C@@H]1[C@H](O)C[C@]2(C)O [shanzhiside methyl ester]",
    "MRT inf / h": 5.28
  }
]
